- TARGET_UNDER_TEST: T1, human ApoC3 (huApoC3), native protein purified from human serum (human, UniProt P02656 21-99)
- T1 construct: Athens Research and Technology; randomly biotinylated in some assays; also called Apolipoprotein C3
- MEASUREMENT_DESCRIPTION: SPR Biacore, huApoC3 on chip, scFv-Fc as analyte
// values below are reported kon

BINDER: 5A4 scFv-Fc (Fc fusion, scFv-Fc format) VH: QLQLVESGGGLVQPGGSLRLSCVASGFAFSHYTMYWVRQAPVRGLERVSAISGGGDRTIYTDSVKGRFTISRDNAANALYLQMNSLQPEDTAVYYCVAQGYEYWGQGTRVTVSS VL: ATMLTQSPGSLSVVPGESASISCKAIQSLVHTDGKTYLYWFLQKPGQSPQRLIYQVSNRGSGVPDRFTGSGSGTDFTLKISGVKAEDAGVYYCAQGTYSSKTFGQGTKLEIK
MEASURE_UNIT: M⁻¹ s⁻¹
kon: 1.06e+06

BINDER: 8A4 scFv-Fc (Fc fusion, scFv-Fc format) VH: QVQLVESGGGLVQPGGSLKVSCTASGFTFNNYAMRWVRQAEGKGLEWVSSIDSGGDRTKYGDSVKGRFSISRDNAKNTVYLQMDALKPEDTGVYYCVSQGYIFWGQGAQVTVSS VL: ATMLTQSPGSLSVVPGESASISCKASQSLVHSDGKTYLYWLLQKPGQRPQLLIYQVSNHESGVPDRFTGSGSGTDYTLKISGVKAEDAGVYYCAQATYYPLTFGQGTKVELK
MEASURE_UNIT: M⁻¹ s⁻¹
kon: 300000

BINDER: 5E5 scFv-Fc (Fc fusion, scFv-Fc format) VH: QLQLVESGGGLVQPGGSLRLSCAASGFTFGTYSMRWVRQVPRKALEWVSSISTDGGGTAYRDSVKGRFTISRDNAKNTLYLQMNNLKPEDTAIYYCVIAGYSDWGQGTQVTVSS VL: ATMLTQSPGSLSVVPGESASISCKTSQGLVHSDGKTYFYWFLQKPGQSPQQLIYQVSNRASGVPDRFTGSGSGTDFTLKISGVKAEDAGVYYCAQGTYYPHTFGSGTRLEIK
MEASURE_UNIT: M⁻¹ s⁻¹
kon: 260000
